Hello, the source for this data is ChEMBL document CHEMBL2163304, in case you need it.

System: HL-60
procedure text: Cytotoxicity against human HL60 cells after 48 hrs by MTT assay
Assay type: functional, cell-based
particulars: HL-60, 48 h
pIC50: −log10 of the molar value.
result type: pIC50

For orientation, consider the following solved cases.
COc1ccc2c(c1)N1C(=O)C[C@@H]3OCC=C4CN5CC[C@]26[C@@H]5C[C@@H]4[C@@H]3[C@H]16 : < 4.40
CN1CC[C@]23C(=O)C[C@H]4C(=CCO[C@H]5CC(=O)N(c6c(O)cccc62)[C@H]3[C@H]54)C1 : < 4.40
C[N+]12CC[C@@]34c5ccccc5N5C(=O)C[C@@H]6OCC=C(C1)[C@H](C[C@@H]32)[C@@H]6[C@H]54 (stereo partly specified) [STRYCHNINE METHIODIDE] : < 4.40
O=C1C[C@@H]2OCC=C3C[N+]4([O-])CC[C@]56c7ccccc7N1[C@H]5[C@H]2[C@H]3C[C@@H]64 (stereo partly specified) : < 4.40
O=C1C[C@H]2C3=CCO[C@H]4CC(=O)n5c(c(c6ccccc65)CCN1C3)[C@H]42 : 4.78

Consider the additional molecule presented here.
## Input Recorded pIC50 for COc1cc2c(cc1OC)[C@@]13CCN4CC5=CCO[C@H]6CC(=O)N2[C@H]1[C@H]6[C@H]5C[C@]43O with HL-60, please?
## Output < 4.40
